# assay method text: activity coefficient (dimensionless); of the first substance listed, at infinite dilution; xn = mol fraction of the nth substance listed
# measurement context: 318.15 K; 101 kPa; Liquid; Chromatography; x1 = 0
Note to self: values exactly at 3 are yes. So activity coefficient at or above 3 is yes, below is no.

Below, 4 compounds whose answers are already recorded.
compound	label value
Cc1ccccc1C [1,2-dimethylbenzene] + CCCC[n+]1ccc(C)cc1.O=S(=O)([N-]S(=O)(=O)C(F)(F)F)C(F)(F)F	no
C=CCCCCC [1-heptene] + CCCC[n+]1ccc(C)cc1.O=S(=O)([N-]S(=O)(=O)C(F)(F)F)C(F)(F)F	yes
CCCCCCCC [octane] + CCCC[n+]1ccc(C)cc1.O=S(=O)([N-]S(=O)(=O)C(F)(F)F)C(F)(F)F	yes
C1CCOC1 [tetrahydrofuran] + CCCC[n+]1ccc(C)cc1.O=S(=O)([N-]S(=O)(=O)C(F)(F)F)C(F)(F)F	no

Asked: Does the reported activity coefficient for C#CCCCCC [1-heptyne] + CCCC[n+]1ccc(C)cc1.O=S(=O)([N-]S(=O)(=O)C(F)(F)F)C(F)(F)F fall at or above the 3 mark?
Given back: yes

Asked: Given the entry CCOCC [diethyl ether] + CCCC[n+]1ccc(C)cc1.O=S(=O)([N-]S(=O)(=O)C(F)(F)F)C(F)(F)F , answer whether its activity coefficient meets or surpasses 3.
Given back: no

Asked: Could you tell me if the measured activity coefficient of CCc1ccccc1 [ethylbenzene] + CCCC[n+]1ccc(C)cc1.O=S(=O)([N-]S(=O)(=O)C(F)(F)F)C(F)(F)F reaches 3 or more?
Given back: no
